Where do the numbers come from? From patent US20100092526A1.

# Test system: Haemophilus influenzae
# Test details: Susceptibility (MIC/MBC) of H. influenzae clinical isolates
# Assay type: cell-based
# Run conditions: Haemophilus influenzae, strain 49247; nanoemulsion values as μg CPC/ml (P4075EC, W205EC) or μg BA/ml (W205GBA2)
Endpoint: MIC (µg/mL)
A number alone suffices; assume µg/mL.

Answered cases to consult:
| Compound | MIC [µg/mL] |
| --- | --- |
| CO/N=C(\C(=O)N[C@@H]1C(=O)N2C(C(=O)[O-])=C(C[N+]3(C)CCCC3)CS[C@H]12)c1csc(N)n1 [Cefepime] | 1 |
| CN(C)[C@@H]1C(O)=C(C(N)=O)C(=O)[C@@]2(O)C(O)=C3C(=O)c4c(O)cccc4[C@@](C)(O)[C@H]3C[C@@H]12 | 16 |
| CC1(C)S[C@@H]2[C@H](NC(=O)[C@H](N)c3ccccc3)C(=O)N2[C@H]1C(=O)O | 4 |
| CCC[C@@H]1C[C@@H](C(=O)N[C@@H]([C@H]2O[C@H](SC)[C@H](O)[C@@H](O)[C@H]2O)[C@H](C)Cl)N(C)C1 | 8 |

Now for the compound whose MIC we want.
Any idea what MIC came out for `CC[C@H]1OC(=O)[C@H](C)[C@@H](O[C@H]2C[C@@](C)(OC)[C@@H](O)[C@H](C)O2)[C@H](C)[C@@H](O[C@@H]2O[C@H](C)C[C@H](N(C)C)[C@H]2O)[C@](C)(O)C[C@@H](C)CN(C)[C@H](C)[C@@H](O)[C@]1(C)O` on Haemophilus influenzae?
1

---

# MBC annotations
# Test system: Pseudomonas aeruginosa
# Test details: MIC/MBC against CF isolates (CLSI, alamar blue)
# Run conditions: Pseudomonas aeruginosa, CF Pseudomonas isolate NB12

Answered cases to consult:
| Smiles repr | System name | Value measured |
| --- | --- | --- |
| CC(C)(O/N=C(\C(=O)N[C@@H]1C(=O)N2C(C(=O)[O-])=C(C[n+]3ccccc3)CS[C@H]12)c1csc(N)n1)C(=O)O | Pseudomonas aeruginosa | 512 mg/L |
| CO[C@@]1(NC(=O)Cc2cccs2)C(=O)N2C(C(=O)O)=C(COC(N)=O)CS[C@@H]21 | Pseudomonas aeruginosa | > 256 mg/L |
| NC[C@H]1O[C@H](O[C@H]2[C@H](O)[C@@H](O[C@H]3O[C@H](CO)[C@@H](O)[C@H](N)[C@H]3O)[C@H](N)C[C@@H]2N)[C@H](N)C[C@@H]1O | Pseudomonas aeruginosa | 8 mg/L |

Returns the measured MBC for the input molecule. Input: `C[C@H]1COc2c(N3CCN(C)CC3)c(F)cc3c(=O)c(C(=O)O)cn1c23`
1 mg/L

---

# MIC annotations
# Test system: Pseudomonas aeruginosa
# Test details: MIC/MBC against CF isolates (CLSI, alamar blue)
# Run conditions: Pseudomonas aeruginosa, CF Pseudomonas isolate NB15
A number alone suffices; assume µg/mL.

| Smiles repr | Unit descriptor | Value measured |
| --- | --- | --- |
| NC[C@H]1O[C@H](O[C@H]2[C@H](O)[C@@H](O[C@H]3O[C@H](CO)[C@@H](O)[C@H](N)[C@H]3O)[C@H](N)C[C@@H]2N)[C@H](N)C[C@@H]1O | µg/mL | 0.5 |
| C[C@H]1COc2c(N3CCN(C)CC3)c(F)cc3c(=O)c(C(=O)O)cn1c23 | µg/mL | 2 |
| C[C@@H](O)[C@H]1C(=O)N2C(C(=O)O)=C(SCCN=CN)C[C@H]12 | µg/mL | 8 |

Now for the molecule whose MIC we want.
Returns the measured MIC for the input molecule. Input: `CC(C)(O/N=C(\C(=O)N[C@@H]1C(=O)N2C(C(=O)[O-])=C(C[n+]3ccccc3)CS[C@H]12)c1csc(N)n1)C(=O)O`
256

---

# Test system: Proteus mirabilis
# Test details: MIC/MBC of nanoemulsions against gram-negative isolates (CLSI, alamar blue)
# Assay type: cell-based
# Run conditions: Proteus mirabilis (n = 5)
# % susceptible annotations
A number alone suffices; assume %.

Answered cases to consult:
| Compound | Unit descriptor | % susceptible |
| --- | --- | --- |
| CN(C)[C@@H]1C(O)=C(C(N)=O)C(=O)[C@@]2(O)C(O)=C3C(=O)c4c(O)cccc4[C@@](C)(O)[C@H]3C[C@@H]12 | % | 0.0 |
| CO/N=C(\C(=O)N[C@@H]1C(=O)N2C(C(=O)[O-])=C(C[N+]3(C)CCCC3)CS[C@H]12)c1csc(N)n1 [Cefepime] | % | 100.0 |
| CC(C)(O/N=C(\C(=O)N[C@@H]1C(=O)N2C(C(=O)[O-])=C(C[n+]3ccccc3)CS[C@H]12)c1csc(N)n1)C(=O)O | % | 100.0 |
| C[C@@H](O)[C@H]1C(=O)N2C(C(=O)O)=C(SCCN=CN)C[C@H]12 | % | 100.0 |

Any idea what % susceptible came out for `C[C@H]1COc2c(N3CCN(C)CC3)c(F)cc3c(=O)c(C(=O)O)cn1c23` on Proteus mirabilis?
100.0

Any idea what % susceptible came out for `NC[C@H]1O[C@H](O[C@H]2[C@H](O)[C@@H](O[C@H]3O[C@H](CO)[C@@H](O)[C@H](N)[C@H]3O)[C@H](N)C[C@@H]2N)[C@H](N)C[C@@H]1O` on Proteus mirabilis?
100.0

---

# Test system: Stenotrophomonas maltophilia
# Test details: MIC/MBC against CF isolates (CLSI, alamar blue)
# Run conditions: Stenotrophomonas maltophilia, CF Stenotrophomonas isolate Steno 1
Endpoint: MIC

Answered cases to consult:
| Molecule | MIC |
| --- | --- |
| CO/N=C(\C(=O)N[C@@H]1C(=O)N2C(C(=O)[O-])=C(C[N+]3(C)CCCC3)CS[C@H]12)c1csc(N)n1 [Cefepime] | > 32 µg/mL |
| CO[C@@]1(NC(=O)Cc2cccs2)C(=O)N2C(C(=O)O)=C(COC(N)=O)CS[C@@H]21 | > 256 µg/mL |
| NC[C@H]1O[C@H](O[C@H]2[C@H](O)[C@@H](O[C@H]3O[C@H](CO)[C@@H](O)[C@H](N)[C@H]3O)[C@H](N)C[C@@H]2N)[C@H](N)C[C@@H]1O | > 32 µg/mL |
| CC(C)(O/N=C(\C(=O)N[C@@H]1C(=O)N2C(C(=O)[O-])=C(C[n+]3ccccc3)CS[C@H]12)c1csc(N)n1)C(=O)O | > 32 µg/mL |

Now for the molecule whose MIC we want.
Returns the measured MIC for the input molecule. Input: `C[C@H]1COc2c(N3CCN(C)CC3)c(F)cc3c(=O)c(C(=O)O)cn1c23`
1 µg/mL

---

# MIC annotations
# Tested on: Pseudomonas aeruginosa
# Test details: MIC/MBC against CF isolates (CLSI, alamar blue)
# Run conditions: Pseudomonas aeruginosa, CF Pseudomonas isolate NB2
A number alone suffices; assume µg/mL.

| Compound | MIC [µg/mL] |
| --- | --- |
| NC[C@H]1O[C@H](O[C@H]2[C@H](O)[C@@H](O[C@H]3O[C@H](CO)[C@@H](O)[C@H](N)[C@H]3O)[C@H](N)C[C@@H]2N)[C@H](N)C[C@@H]1O [Tobramycin] | 0.25 |
| C[C@H]1COc2c(N3CCN(C)CC3)c(F)cc3c(=O)c(C(=O)O)cn1c23 [Levofloxacin] | 0.5 |

Now for the compound whose MIC we want.
Any idea what MIC came out for C[C@@H](O)[C@H]1C(=O)N2C(C(=O)O)=C(SCCN=CN)C[C@H]12 [Imipenem] on Pseudomonas aeruginosa?
2

---

# Tested on: Stenotrophomonas maltophilia
# Test details: MIC/MBC against CF isolates (CLSI, alamar blue)
# Run conditions: Stenotrophomonas maltophilia, CF Stenotrophomonas isolate NB41
Endpoint: MBC

Answered cases to consult:
| Molecule | System name | Value measured |
| --- | --- | --- |
| CC(C)(O/N=C(\C(=O)N[C@@H]1C(=O)N2C(C(=O)[O-])=C(C[n+]3ccccc3)CS[C@H]12)c1csc(N)n1)C(=O)O [Ceftazidime] | Stenotrophomonas maltophilia | > 32 µg/mL |
| C[C@H]1COc2c(N3CCN(C)CC3)c(F)cc3c(=O)c(C(=O)O)cn1c23 [Levofloxacin] | Stenotrophomonas maltophilia | 4 µg/mL |
| NC[C@H]1O[C@H](O[C@H]2[C@H](O)[C@@H](O[C@H]3O[C@H](CO)[C@@H](O)[C@H](N)[C@H]3O)[C@H](N)C[C@@H]2N)[C@H](N)C[C@@H]1O [Tobramycin] | Stenotrophomonas maltophilia | > 32 µg/mL |
| CO/N=C(\C(=O)N[C@@H]1C(=O)N2C(C(=O)[O-])=C(C[N+]3(C)CCCC3)CS[C@H]12)c1csc(N)n1 [Cefepime] | Stenotrophomonas maltophilia | > 32 µg/mL |

Now for the molecule whose MBC we want.
Returns the measured MBC for the input molecule. Input: CO[C@@]1(NC(=O)Cc2cccs2)C(=O)N2C(C(=O)O)=C(COC(N)=O)CS[C@@H]21 [Cefoxitin]
> 256 µg/mL
